Below: a set of entries, each annotated with reported GI50.
- System: HCT-15 colon
- protocol.text: NCI tumour cell line growth inhibition, 48 h
outcome.measure: GI50

item.smiles: O=[N+]([O-])c1ccc(N2CCN(Cc3ccccc3)CC2)c2c1no[n+]2[O-]
assayed.system: HCT-15 colon
experimental.value: 0.805 µM

item.smiles: CC(C)(C)[OH+][O-].[O-]c1ccc(Cl)cc1C=Nc1ccc(Cl)cc1[O-].[O]=[V]
assayed.system: HCT-15 colon
experimental.value: 21.8 µM

item.smiles: O=C(Nc1ccc(Cl)c([N+](=O)[O-])c1)Nc1nc2ccccc2s1
assayed.system: HCT-15 colon
experimental.value: 3.32 µM

item.smiles: CCc1ccc(-c2nnc(COc3ccc(-c4nc5ccc(C)cc5[nH]4)cc3OC)o2)cc1
assayed.system: HCT-15 colon
experimental.value: 2.82 µM

item.smiles: OCCN(CCO)N=Nc1ccc(-c2nc3ccccc3[nH]2)cc1
assayed.system: HCT-15 colon
experimental.value: 21.8 µM

----------
- Test system: COLO 205 colon
- protocol.text: NCI tumour cell line growth inhibition, 48 h
outcome.measure: TGI

compound: NCc1ccc(-c2ccc(-c3ccc(-c4ccc(CN)s4)s3)s2)s1
experimental.value: > 100 µM
//
compound: C=C(O)c1ccccc1C#Cc1ccccc1C(=O)OC
experimental.value: > 10 µM
//
compound: CC1C(c2ccc(F)cc2)c2cc3c(cc2OC1N1CCCC1)OCO3 (stereo unspecified)
experimental.value: > 100 µM
//
compound: O=C(Nc1ccc(Cl)c(C(F)(F)F)c1)C(=O)C(C(=O)/C=C/c1ccccc1)C1OC(=O)c2ccccc21 (stereo unspecified)
experimental.value: > 100 µM
//
compound: c1ccc(N=C2c3ccccc3CN2c2ccccc2)cc1
experimental.value: > 100 µM
//
compound: O=C1/C(=C/c2cccc([N+](=O)[O-])c2)COc2ccc(O)c(O)c21
experimental.value: 3.74 µM

----------
Below: a set of entries, each annotated with reported TGI.
- Test system: CAKI-1 renal
- protocol.text: NCI tumour cell line growth inhibition, 48 h

molecule: COc1c2c(c(OC)c3c1c(=O)c1ccccc1n3C)OCO2
TGI: > 100 µM

molecule: Cc1ccc(NC(=O)c2[nH]c(=S)nc(N)c2-c2ccccc2C)cc1C
TGI: > 100 µM

molecule: Cc1ccc(S(=O)(=O)N/N=C(\CCN2CCCC2)CC(c2ccccc2)c2c(O)c3ccccc3oc2=O)cc1 (centres undefined)
TGI: > 100 µM

molecule: COc1ccc2[nH]cc(CCNC(C)=O)c2c1
TGI: > 100 µM

molecule: COc1ccc(CN2C(=O)/C(=C\c3cc(OC)c(OC)c(OC)c3)c3cc(OC)ccc32)cc1
TGI: > 22.2 µM

molecule: Cn1c(=O)oc2cc(C(=O)CSC(=S)N3CCCCCC3)ccc21
TGI: > 100 µM

molecule: NC(=O)NC(=O)c1cnccn1
TGI: > 100 µM

molecule: OC(c1cc2cc(Br)ccc2c2cc(Br)ccc12)C1CCCCN1 (centres undefined)
TGI: 3.54 µM

molecule: CC1=C2C(O)C(C(C)C(=O)NCC(C)C)CCC2(C)C=CC1=O (centres undefined)
TGI: > 100 µM

----------
Below: a set of entries, each annotated with reported TGI.
- Test system: OVCAR-8 ovarian
- protocol.text: NCI tumour cell line growth inhibition, 48 h

molecule: Cc1ccc(NC(=O)c2[nH]c(=S)nc(N)c2-c2ccccc2C)cc1C
TGI: > 100 µM
//
molecule: CCOC(=O)c1cc2cc(N(C(C)=O)C(C)=O)ccc2s1
TGI: 93.2 µM
//
molecule: CC(C)(C)[OH+][O-].[O-]c1ccc(Cl)cc1C=Nc1ccc(Cl)cc1[O-].[O]=[V]
TGI: > 100 µM
//
molecule: O=c1c(O)c(-c2ccc(O)cc2O)oc2cc(O)cc(O)c12
TGI: > 100 µM
//
molecule: Cn1ncc(=S)[nH]c1=S
TGI: > 100 µM
//
molecule: N#CC1=C(N)Oc2cc3c(cc2C1c1cccs1)OCO3 (configuration not stated)
TGI: > 52.7 µM
//
molecule: CCOC(=N)CC(=O)Nc1ccc(Cl)cc1
TGI: > 100 µM
//
molecule: COc1ccc(C(=O)Cn2c(C(=O)c3ccc(OC)cc3)nc3ccccc32)cc1
TGI: > 100 µM
//
molecule: CCCCCCCCC[C@@H]1C[C@@H]2CCC3C(C(=O)OC)=C(C)NC(=N1)N32 (some centres not stated)
TGI: 23.7 µM
//
molecule: CNC(=S)/C(=N\Nc1nc[nH]c1C(N)=O)C(N)=S
TGI: > 57.5 µM
//
molecule: CN(C)c1nc(N(C)C)nc(N(C)C)n1
TGI: > 150 µM
//
molecule: CCCN1C(=O)C/C(=C\C(C)=O)Nc2ccccc21
TGI: > 100 µM

----------
- Tested on: OVCAR-8 ovarian
- protocol.text: NCI tumour cell line growth inhibition, 48 h

item.smiles: CS(=O)(=O)c1ccc(Oc2cc(F)cc(C#N)c2)c2c1[C@H](O)[C@H](F)[C@@H]2F
TGI: > 100 µM
//
item.smiles: O=C(Nc1ccc(Cl)c([N+](=O)[O-])c1)Nc1nc2ccccc2s1
TGI: 17.7 µM
//
item.smiles: c1ccc(N=C2c3ccccc3CN2c2ccccc2)cc1
TGI: > 100 µM
//
item.smiles: O=C1C=CC(=O)c2c1ccc1c3ccccc3n(-c3ccccn3)c21
TGI: > 100 µM

----------
- Tested on: LOX IMVI melanoma
- protocol.text: NCI tumour cell line growth inhibition, 48 h

molecule: O=C1C2C(C(=O)N1O)N(Cc1ccccc1)C(=O)N2Cc1ccccc1 (stereo unspecified)
TGI: > 100 µM

molecule: CC(C)(C)[Si](C)(C)OCC1CCC(n2cnc3c(NC(=O)c4ccccc4)ncnc32)O1 (stereo unspecified)
TGI: 37.1 µM

molecule: Cn1ncc(=S)[nH]c1=S
TGI: > 100 µM

molecule: CCN(CC)C(=S)SS(=O)(=O)c1ccccc1C(=O)O
TGI: > 100 µM

molecule: C=C1C(=O)O[C@H]2[C@H]1CC/C(COC(=O)C(=O)c1c[nH]c3ccccc13)=C\CC[C@@]1(C)O[C@@H]21
TGI: 3.04 µM

molecule: CN(C)c1nc(N(C)C)nc(N(C)C)n1
TGI: > 150 µM

molecule: CCOc1c2ccsc2c(OCC)c2ccsc12
TGI: 23 µM

molecule: CC1C(c2ccc(F)cc2)c2cc3c(cc2OC1N1CCCC1)OCO3 (stereo unspecified)
TGI: > 100 µM

molecule: Cc1ccc(S(=O)ON2CCC(C(=O)O)(c3ccccc3)CC2)cc1 (stereo unspecified)
TGI: > 100 µM

molecule: CCOC(=O)C1C(=O)CC(O)(OCC)C(C(=O)OCC)C1c1ccc(OC)cc1 (stereo unspecified)
TGI: > 100 µM

molecule: O=c1c2ccccc2nc2n1NC(c1c(Cl)cccc1Cl)N2c1cccc(Cl)c1 (stereo unspecified)
TGI: > 100 µM

----------
- Test system: CAKI-1 renal
- protocol.text: NCI tumour cell line growth inhibition, 48 h

compound: CC[C@@H]1C[C@@H]2CN3CCc4c([nH]c5ccc(OC)cc45)C(COC(=O)c4ccc(OC)c(OC)c4)(C2)C13
output.unit: µM
comparison.operator: >
TGI: 100

compound: S=c1ssc2c3ssc(=S)c3n(Cc3ccccc3)c12
output.unit: µM
comparison.operator: >
TGI: 100

compound: Brc1cccc(/C=C/CN2CCN(CCOC(c3ccccc3)c3ccccc3)CC2)c1
output.unit: µM
comparison.operator: =
TGI: 30.2

compound: CCCCCCCCC[C@@H]1C[C@@H]2CCC3C(C(=O)OC)=C(C)NC(=N1)N32 (stereo not given in full)
output.unit: µM
comparison.operator: =
TGI: 37.8

compound: OCCN(CCO)N=Nc1ccc(-c2nc3ccccc3[nH]2)cc1
output.unit: µM
comparison.operator: =
TGI: 60.6

----------
- Test system: TK-10 renal
- protocol.text: NCI tumour cell line growth inhibition, 48 h

compound: CC(=O)OCC1OC(On2ccccc2=S)C(OC(C)=O)C(OC(C)=O)C1OC(C)=O (stereo not given)
TGI: > 100 µM
//
compound: Oc1ccc2ccccc2c1C=NCCCN=Cc1c(O)ccc2ccccc12
TGI: > 100 µM
//
compound: CN(N=O)C(=O)Nc1c[nH]c(=O)[nH]c1=O
TGI: > 100 µM
//
compound: CC[C@@H]1C[C@@H]2CN3CCc4c([nH]c5ccc(OC)cc45)C(COC(=O)c4ccc(OC)c(OC)c4)(C2)C13
TGI: 97.2 µM
//
compound: O=C1/C(=C/c2cccc([N+](=O)[O-])c2)COc2ccc(O)c(O)c21
TGI: 3.21 µM
//
compound: CCOC(=O)c1nc2cc(N3CCOCC3)c(F)cc2[nH]c1=O
TGI: > 100 µM
//
compound: CC(=O)/C(C=Nc1c(C)n(C)n(-c2ccccc2)c1=O)=C(/C)O
TGI: > 100 µM
//
compound: CC(C)(C)OC(=O)[N+](=N)C(=O)C1CCC(=O)N1C(=O)OCc1ccccc1 (stereo not given)
TGI: > 100 µM
//
compound: CN(C)c1ccc(-c2cc(=O)c3ccccc3[nH]2)cc1
TGI: > 100 µM
//
compound: c1ccc(COc2ccc(CC3SCCCS3)cc2)cc1
TGI: > 100 µM
